Tgt: human IL13 (human, UniProt P35225 35-146, biotinylated in the SPR assays (sites not given))
Sequence (P35225 other isoform, or with tags, fused parts or gaps limits assumed): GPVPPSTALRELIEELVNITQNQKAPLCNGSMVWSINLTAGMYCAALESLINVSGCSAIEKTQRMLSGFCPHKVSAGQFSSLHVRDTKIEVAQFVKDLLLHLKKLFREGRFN
Experimental details: cell-based or functional assay
Listing: HEK STAT6 IC50 of selected binders
Recorded metric: HEK STAT6 IC50 (pM)

binder="7G11 (designed binder, ankyrin repeat protein) DLGKKLLEAARAGQDDEVRILMANGADVNATDEFDSTPLHLAARHGHLEIVEVLLKYGADVNAADFIGDTPLHLAAYRGHLEIVEVLLKCGVDVNADDHGDTPLHLAASMGHLEIVEVLLKNGADVNAQDKFGKTAFDISIDNGNEDLAEILQKLN" display_unit=pM observed=2.5
binder="6G9r13 (designed binder, optimized 6G9; expressed without HIS tag) ALDKKLLEAARAGQDDEVRILMANGADVNARDSYGSTPLHLAAREGHLEIVEVLLKYGADVNAADFIGDTPLHLAAYRGHLEIVEVLLKYGADVNASDITGETPLHLAAQIGHLEIVEVLLKHGADVNAQDKFGKTAFDISIDNGNEDLAEILQKAA" display_unit=pM observed=5.6
